System: tobacco leaves
Experiment: Effect of peptide infiltration on tobacco leaves (phytotoxicity)
Assay type: in vivo
Conditions: 100 μL infiltrated into mesophyll, lesion diameter 48 h after infiltration, at least three leaves; ± confidence interval (α = 0.05)
No end group written: not given here.
quantity_kind: Size of the lesions in infiltrated tobacco leaves at 250 μM
Write the quantity with the unit trailing the number.

Some solved cases for reference:
KKLFKKILKYL-FKLFKKILKVL-NH2 [BP100-BP13, peptide conjugate, BP100 at N-terminus, BP13 at C-terminus] ... 1.46 ± 0.06 cm
H-KKVVFWVKFKFKLFKKILKVL-NH2 [KSLW-BP13] ... 1.07 ± 0.34 cm
KKVVFWVKFK-RINSAKDDAAGLQIA-OH [KSLW-flg15, peptide conjugate, KSL-W at N-terminus, flg15 at C-terminus] ... 0.26 ± 0.05 cm

Next item in the queue.
# Size of the lesions in infiltrated tobacco leaves at 250 μM (substance: KKVVFWVKFK-NH2 [KSL-W, reference compound] ) is 0.62 ± 0.45 cm

====

System: tobacco leaves
Test: Effect of peptide infiltration on tobacco leaves (phytotoxicity)
Assay type: in vivo
Conditions: 100 μL infiltrated into mesophyll, lesion diameter 48 h after infiltration, at least three leaves; ± confidence interval (α = 0.05)
Non-standard residues stand in square brackets, D forms with d. Residues, ends and D or L forms follow the SMILES beside them. *: point of attachment. Butyryl = CCCC(=O)*
Size of the lesions in infiltrated tobacco leaves at 50 μM less than 0.3 cm is rule met; Size of the lesions in infiltrated tobacco leaves at 50 μM greater than or equal to 0.3 cm is rule not met.

Some solved cases for reference:
CCCC(=O)NCCCC[C@H](NC(=O)[C@@H](NC(=O)[C@H](CCCCN)NC(=O)[C@H](CCCCN)NC(=O)[C@H](Cc1ccccc1)NC(=O)[C@H](CC(C)C)NC(=O)[C@H](CCCCN)NC(=O)[C@H](CCCCN)NC(C)=O)[C@@H](C)CC)C(=O)N[C@@H](CCCCN)C(=O)N[C@@H](Cc1ccc(O)cc1)C(=O)N[C@@H](CC(C)C)C(N)=O [BP387, reference compound] (Ac-KKLFKKIK(Butyryl)KYL-NH2) ... rule not met
CC[C@H](C)[C@H](NC(=O)[C@H](CCCCN)NC(=O)[C@H](CCCCN)NC(=O)[C@@H](Cc1ccccc1)NC(=O)[C@H](CC(C)C)NC(=O)[C@H](CCCCN)NC(=O)[C@@H](N)CCCCN)C(=O)N[C@@H](CC(C)C)C(=O)N[C@@H](CCCCN)C(=O)N[C@@H](Cc1ccc(O)cc1)C(=O)N[C@@H](CC(C)C)C(N)=O [BP143, reference compound] ... rule met
CCCC(=O)NCCCC[C@H](NC(=O)[C@H](CCCCN)NC(=O)[C@H](CC(C)C)NC(=O)[C@@H](NC(=O)[C@H](CCCCN)NC(=O)[C@H](CCCCN)NC(=O)[C@@H](Cc1ccccc1)NC(=O)[C@H](CC(C)C)NC(=O)[C@H](CCCCN)NC(=O)[C@H](CCCCN)NC(C)=O)[C@@H](C)CC)C(=O)N[C@@H](CC(C)C)C(N)=O [BP475, reference compound] (Ac-KKL[dF]KKILKK(Butyryl)L-NH2) ... rule not met
CC[C@H](C)[C@H](NC(=O)[C@H](CCCCN)NC(=O)[C@H](CCCCN)NC(=O)[C@H](Cc1ccccc1)NC(=O)[C@H](CC(C)C)NC(=O)[C@H](CCCCN)NC(=O)[C@@H](N)CCCCN)C(=O)N[C@@H](CC(C)C)C(=O)N[C@@H](CCCCN)C(=O)N[C@@H](Cc1ccc(O)cc1)C(=O)N[C@@H](CC(C)C)C(N)=O [BP100, reference compound] ... rule not met

Below: the item to evaluate.
Inquiry: Report whether reported Size of the lesions in infiltrated tobacco leaves at 50 μM is lower than 0.3 cm (strictly) for CC[C@H](C)[C@H](NC(=O)[C@H](CCCCN)NC(=O)[C@H](CCCCN)NC(=O)[C@H](Cc1ccccc1)NC(=O)[C@H](CC(C)C)NC(=O)[C@H](CCCCN)NC(=O)[C@@H](N)CCCCN)C(=O)N[C@@H](CC(C)C)C(=O)N[C@@H](CCCCN)C(=O)N[C@@H](CCCCN)C(=O)N[C@@H](CC(C)C)C(N)=O [BP16, reference compound]
Reply text: rule met

====

Tested on: horse erythrocytes
Conditions: TRIS buffer pH 7.2, 1 h, 37°C, absorbance 540 nm, relative to melittin 100 μM, ± confidence interval (α = 0.05)
quantity_kind: Percent hemolysis at 50 μM (%)
Please give a number only; it is taken to be in %.

# Percent hemolysis at 50 μM (compound: CC[C@H](C)[C@H](NC(=O)[C@H](CCCCN)NC(=O)[C@H](CCCCN)NC(=O)[C@@H](Cc1ccccc1)NC(=O)[C@H](CC(C)C)NC(=O)[C@H](CCCCN)NC(=O)[C@@H](N)CCCCN)C(=O)N[C@@H](CC(C)C)C(=O)N[C@@H](CCCCN)C(=O)N[C@@H](Cc1ccc(O)cc1)C(=O)N[C@@H](CC(C)C)C(N)=O [BP143, reference compound] ) is 3

====

Here the recorded MIC, Ea is given for each entry.
Tested on: Erwinia amylovora PMV6076
Experiment: In vitro growth inhibition (MIC)
Format: cell-based
Conditions: TSB, 25°C, 48 h, OD 600 nm (Bioscreen C), three replicates, experiment repeated twice; MIC = lowest concentration with no growth, given as range
No end group written: not given here.

Some solved cases for reference:
FKLFKKILKVL-KKLfKKILKYL-NH2 [BP13-BP143, peptide conjugate, BP13 at N-terminus, BP143 at C-terminus] ... > 50 µM
KKLFKKILKYL-RINSAKDDAAGLQIA-OH [BP100-flg15, peptide conjugate, BP100 at N-terminus, flg15 at C-terminus] ... 6.2 to 12.5 µM
Ac-KKLFKKIK(COC3H7)KYL-RINSAKDDAAGLQIA-OH [BP387-flg15, peptide conjugate, lipopeptide BP387 at N-terminus, flg15 at C-terminus] ... 25 to 50 µM

# MIC, Ea (substance: KKLFKKILKKL-FKLFKKILKVL-NH2 [BP16-BP13, peptide conjugate, BP16 at N-terminus, BP13 at C-terminus] ) is > 50 µM

# MIC, Ea (substance: KKLFKKILKYLVWNQPVRGFKVYE [BP100-Pep13] ) is 0.8 to 1.6 µM

# MIC, Ea (substance: FKLFKKILKVL-KKLFKKILKKL-NH2 [BP13-BP16, peptide conjugate, BP13 at N-terminus, BP16 at C-terminus] ) is > 50 µM

# MIC, Ea (substance: VWNQPVRGFKVYEKKLFKKILKYL-NH2 [Pep13-BP100] ) is 6.2 to 12.5 µM

====

Test system: Xanthomonas arboricola pv. pruni CFBP5563
Test: In vitro growth inhibition (MIC)
Format: cell-based
Conditions: TSB, 25°C, 48 h, OD 600 nm (Bioscreen C), three replicates, experiment repeated twice; MIC given as range
No end group written: not given here.
quantity_kind: MIC, Xap

Some solved cases for reference:
VWNQPVRGFKVYEKKLFKKILKKL-NH2 [Pep13-BP16] ... 0.8 to 1.6 µM
VWNQPVRGFKVYE-OH [Pep13, pathogen-associated molecular pattern (PAMP) from Phytophthora sojae; plant defense elicitor monomer] ... > 50 µM
H-KKVVFWVKFKYGIHTH-NH2 [KSLW-PIP1] ... 3.1 to 6.2 µM
KKVVFWVKFK-RINSAKDDAAGLQIA-OH [KSLW-flg15, peptide conjugate, KSL-W at N-terminus, flg15 at C-terminus] ... > 50 µM

# MIC, Xap (substance: KKLfKKILKYL-FKLFKKILKVL-NH2 [BP143-BP13, peptide conjugate, BP143 at N-terminus, BP13 at C-terminus] ) is 12.5 to 25 µM

# MIC, Xap (substance: KKLFKKILKKL-RINSAKDDAAGLQIA-OH [BP16-flg15, peptide conjugate, BP16 at N-terminus, flg15 at C-terminus] ) is 25 to 50 µM

====

System: tobacco leaves
Test: Effect of peptide infiltration on tobacco leaves (phytotoxicity)
Format: in vivo
Settings: in vivo
No end group written: not given here.
Size of the lesions in infiltrated tobacco leaves at 150 μM less than 0.3 cm is Fulfilled; Size of the lesions in infiltrated tobacco leaves at 150 μM greater than or equal to 0.3 cm is Not fulfilled.

Some solved cases for reference:
KKLFKKILKKLVWNQPVRGFKVYE [BP16-Pep13] ... Not fulfilled
VWNQPVRGFKVYEKKLFKKILKYL-NH2 [Pep13-BP100] ... Not fulfilled
VWNQPVRGFKVYE-OH [Pep13, pathogen-associated molecular pattern (PAMP) from Phytophthora sojae; plant defense elicitor monomer] ... Fulfilled
H-KKVVFWVKFKYGIHTH-NH2 [KSLW-PIP1] ... Not fulfilled

Inquiry: Report whether reported Size of the lesions in infiltrated tobacco leaves at 150 μM is lower than 0.3 cm (strictly) for YGIHTH-NH2 [PIP1, plant defense elicitor peptide identified through combinatorial chemistry; monomer]
Reply text: Fulfilled

Inquiry: Report whether reported Size of the lesions in infiltrated tobacco leaves at 150 μM is lower than 0.3 cm (strictly) for H-YGIHTHKKVVFWVKFK-NH2 [PIP1-KSLW]
Reply text: Not fulfilled

Inquiry: Report whether reported Size of the lesions in infiltrated tobacco leaves at 150 μM is lower than 0.3 cm (strictly) for VWNQPVRGFKVYEKKLFKKILKKL-NH2 [Pep13-BP16]
Reply text: Not fulfilled

Inquiry: Report whether reported Size of the lesions in infiltrated tobacco leaves at 150 μM is lower than 0.3 cm (strictly) for KKLFKKILKYLVWNQPVRGFKVYE [BP100-Pep13]
Reply text: Not fulfilled
